- Test target: Btk (Homo sapiens)
- Experiment: Btk in vitro inhibitory activity, acellular TR-FRET kinase assay
- Assay setup: read-out: Btk IC50 (Efficacy)
- Procedure: Btk kinase activity was determined using a time-resolved fluorescence resonance energy transfer (TR-FRET) methodology. Measurements were performed in a reaction volume of 50 μL using 96-well assay plates. […] The TR-FRET signal was measured on a multimode plate reader with an excitation wavelength (λEx) of 330 nm and detection wavelengths (λEm) of 615 and 665 nm. Activity was determined by the ratio of the fluorescence at 665 nm to that at 615 nm. […]
Readout name: IC50

structure=Cc1ccc(NC(=O)/C=C/c2ccccc2)cc1C(=O)Nc1cnc(Nc2cccc(N)c2)nc1 test_result="100 to 1000 nM"
structure=Cc1ccc(NC(=O)c2ccc3c(c2)OC(F)(F)O3)cc1C(=O)Nc1cnc(Nc2cccc(N)c2)nc1 test_result="< 100 nM"
structure=C=CC(=O)Nc1cccc(Nc2ncc(NC(=O)c3cc(NC(=O)C4CC4)ccc3C)cn2)c1 test_result="100 to 1000 nM"
structure=C=CC(=O)Nc1cccc(Nc2ncc(NC(=O)c3cc(NC(=O)c4ccc5c(c4)OC(F)(F)O5)ccc3C)cn2)c1 test_result="< 100 nM"

Next:
Case C=CC(=O)NCC(=O)Nc1cccc(Nc2ncc(NC(=O)c3cc(NC(=O)c4cccc(C(F)(F)F)c4)ccc3C)cn2)c1 , Btk (Homo sapiens), IC50 recorded as < 100 nM

----------
- Test target: Btk (Homo sapiens, UniProt Q06187)
- Sequence (Q06187 whole entry): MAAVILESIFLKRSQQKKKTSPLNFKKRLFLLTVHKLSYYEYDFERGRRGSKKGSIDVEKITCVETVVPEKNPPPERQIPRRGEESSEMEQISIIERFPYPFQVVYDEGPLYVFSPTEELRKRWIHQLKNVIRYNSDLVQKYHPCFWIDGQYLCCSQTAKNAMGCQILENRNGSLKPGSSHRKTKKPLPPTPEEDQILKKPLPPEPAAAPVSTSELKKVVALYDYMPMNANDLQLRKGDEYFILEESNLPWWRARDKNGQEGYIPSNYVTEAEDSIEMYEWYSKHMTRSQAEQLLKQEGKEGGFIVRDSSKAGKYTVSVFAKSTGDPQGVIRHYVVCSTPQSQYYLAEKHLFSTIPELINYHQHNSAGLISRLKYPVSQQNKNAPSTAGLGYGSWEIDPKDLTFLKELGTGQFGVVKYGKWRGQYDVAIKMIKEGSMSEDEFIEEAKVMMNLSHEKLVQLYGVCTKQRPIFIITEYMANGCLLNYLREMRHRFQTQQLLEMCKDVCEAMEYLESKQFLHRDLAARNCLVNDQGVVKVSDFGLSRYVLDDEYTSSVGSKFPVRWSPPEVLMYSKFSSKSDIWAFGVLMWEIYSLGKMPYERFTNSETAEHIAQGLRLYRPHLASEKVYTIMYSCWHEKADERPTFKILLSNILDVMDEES
- Experiment: Btk in vitro inhibitory activity, acellular TR-FRET kinase assay; also: 1 µM peptide substrate
- Assay setup: read-out: Btk IC50 (Efficacy)
Readout name: IC50

compound="COc1cc(OC)cc(C(=O)Nc2ccc(C)c(C(=O)Nc3cnc(Nc4cccc(N)c4)nc3)c2)c1 [Example 24]" test_result="< 100 nM"
compound="C=CC(=O)Nc1cccc(Nc2ncc(NC(=O)c3cc(NC(=O)c4cccc(C(F)(F)F)c4)ccc3F)cn2)c1 [Example 7]" test_result="< 100 nM"
compound="C=CC(=O)Nc1cccc(Nc2ncc(NC(=O)c3cc(NC(=O)c4ccc(C(F)(F)F)cc4)ccc3C)cn2)c1 [Example 14]" test_result="< 100 nM"
compound="C=CC(=O)Nc1cccc(Nc2ncc(NC(=O)c3ccccc3C)cn2)c1 [Example 9]" test_result="< 100 nM"
compound="Cc1ccc(NC(=O)c2ccc(C(F)(F)F)cc2)cc1C(=O)Nc1cnc(Nc2cccc(N)c2)nc1 [Example 26]" test_result="< 100 nM"
compound="CCC(=O)Nc1ccc(C)c(C(=O)Nc2cnc(Nc3cccc(N)c3)nc2)c1 [Example 22]" test_result="1000 to 10000 nM"

Case C=CC(=O)N(C(=O)C=C)c1cccc(Nc2ncc(NC(=O)c3cc(NC(=O)c4cccc(C(F)(F)F)c4)ccc3C)cn2)c1 [Example 5] , Btk (Homo sapiens, UniProt Q06187), IC50 recorded as 100 to 1000 nM

Case Cc1ccc(NC(=O)c2cc(Cl)cc(C(F)(F)F)c2)cc1C(=O)Nc1cnc(Nc2cccc(N)c2)nc1 [Example 21] , Btk (Homo sapiens, UniProt Q06187), IC50 recorded as < 100 nM

Case C=CC(=O)Nc1cccc(Nc2ncc(NC(=O)c3cc(NC(=O)c4cccc(F)c4)ccc3C)cn2)c1 [Example 16] , Btk (Homo sapiens, UniProt Q06187), IC50 recorded as < 100 nM

Case Cc1ccc(NC(=O)Nc2cccc(C(F)(F)F)c2)cc1C(=O)Nc1cnc(Nc2cccc(N)c2)nc1 [Example 35] , Btk (Homo sapiens, UniProt Q06187), IC50 recorded as < 100 nM

Case C=CS(=O)(=O)Nc1cccc(Nc2ncc(NC(=O)c3cc(NC(=O)c4cccc(C(F)(F)F)c4)ccc3C)cn2)c1 [Example 3] , Btk (Homo sapiens, UniProt Q06187), IC50 recorded as < 100 nM

Case Cc1ccc(NC(=O)c2ccc3ccccc3c2)cc1C(=O)Nc1cnc(Nc2cccc(N)c2)nc1 [Example 23] , Btk (Homo sapiens, UniProt Q06187), IC50 recorded as < 100 nM

Case C=CC(=O)Nc1cccc(Nc2ncc(NC(=O)c3cc(NC(=O)c4ccc5ccccc5c4)ccc3C)cn2)c1 [Example 11] , Btk (Homo sapiens, UniProt Q06187), IC50 recorded as < 100 nM

Case C=CC(=O)Nc1cccc(Nc2ncc(NC(=O)c3cc(NC(=O)c4cc(OC)cc(OC)c4)ccc3C)cn2)c1 [Example 12] , Btk (Homo sapiens, UniProt Q06187), IC50 recorded as < 100 nM

Case C=CC(=O)Nc1cccc(Nc2ncc(NC(=O)c3cc(NC(=O)c4cnoc4C)ccc3C)cn2)c1 [Example 17] , Btk (Homo sapiens, UniProt Q06187), IC50 recorded as 100 to 1000 nM

Case C=CC(=O)Nc1cccc(Nc2ncc(NC(=O)c3cc(NC(=O)c4cccc(N(C)C)c4)ccc3C)cn2)c1 [Example 18] , Btk (Homo sapiens, UniProt Q06187), IC50 recorded as < 100 nM

Case Nc1cccc(Nc2ncc(NC(=O)c3cc(NC(=O)c4cccc(C(F)(F)F)c4)ccc3F)cn2)c1 [Example 34] , Btk (Homo sapiens, UniProt Q06187), IC50 recorded as < 100 nM

Case Cc1ccc(NC(=O)C2CC2)cc1C(=O)Nc1cnc(Nc2cccc(N)c2)nc1 [Example 31] , Btk (Homo sapiens, UniProt Q06187), IC50 recorded as 1000 to 10000 nM

Case Cc1ccc(NC(=O)c2cccc(F)c2)cc1C(=O)Nc1cnc(Nc2cccc(N)c2)nc1 [Example 28] , Btk (Homo sapiens, UniProt Q06187), IC50 recorded as 100 to 1000 nM

Case C=CC(=O)Nc1cccc(Nc2ncc(NC(=O)c3cc(NC(=O)c4cccc(Cl)c4)ccc3C)cn2)c1 [Example 15] , Btk (Homo sapiens, UniProt Q06187), IC50 recorded as < 100 nM

Case Cc1ccc(NC(=O)c2cccc(C(F)(F)F)c2)cc1C(=O)Nc1cnc(Nc2cccc(N)c2)nc1 [Example 20] , Btk (Homo sapiens, UniProt Q06187), IC50 recorded as < 100 nM

Case C/C=C/C(=O)Nc1cccc(Nc2ncc(NC(=O)c3cc(NC(=O)c4cccc(C(F)(F)F)c4)ccc3C)cn2)c1 [Example 2] , Btk (Homo sapiens, UniProt Q06187), IC50 recorded as < 100 nM

Case Cc1ccc(NC(=O)c2cccc(N(C)C)c2)cc1C(=O)Nc1cnc(Nc2cccc(N)c2)nc1 [Example 30] , Btk (Homo sapiens, UniProt Q06187), IC50 recorded as < 100 nM
